Tested on: BJ
Test: Cytostatic/cytotoxic MTT assay, BJ fibroblasts
Type: cell-based
Conditions: Homo sapiens, non-malignant fibroblasts, 72 h, read-out: MTT, IC50 BJ
measuredQuantity: pIC50
Answer as the number alone; pIC50 is minus log10 of concentration in mol/L.

See these solved cases before continuing.
C#Cc1cn([C@@H]2O[C@H](CO)[C@@H](O)[C@H]2O)c2ncnc(NC)c12: 4.07
CSc1ncnc2c1c(I)cn2[C@@H]1O[C@H](CO)[C@@H](O)[C@H]1O: 4.06
CNc1ncnc2c1c(-c1cc3ccccc3o1)cn2[C@@H]1O[C@H](CO)[C@@H](O)[C@H]1O: 4.12

Reported BJ pIC50 for item `C#Cc1cn([C@@H]2O[C@H](CO)[C@@H](O)[C@H]2O)c2ncnc(C)c12` was 7.30

Reported BJ pIC50 for item `COc1ncnc2c1c(-c1ccsc1)cn2[C@@H]1O[C@H](CO)[C@@H](O)[C@H]1O` was 4.19

###

Each entry below carries its recorded melting point.

See these solved cases before continuing.
Cc1ncnc2c1c(-c1cccs1)cn2[C@@H]1O[C@H](CO)[C@@H](O)[C@H]1O: 110 to 111 °C
COc1ncnc2c1c(-c1ccsc1)cn2[C@@H]1O[C@H](CO)[C@@H](O)[C@H]1O: 169 to 171 °C
CNc1ncnc2c1c(-c1ccoc1)cn2[C@@H]1O[C@H](CO)[C@@H](O)[C@H]1O: 90 to 97 °C
COc1ncnc2c1c(-c1cccs1)cn2[C@@H]1O[C@H](CO)[C@@H](O)[C@H]1O: 140 to 143 °C

Now consider a different molecule.
Looking up `COc1ncnc2c1c(-c1ccccc1)cn2[C@@H]1O[C@H](CO)[C@@H](O)[C@H]1O` , I see its melting point listed as 117 to 120 °C

###

Tested on: HCV subtype 2A replicon in Huh-7 cells
Experiment: HCV sub-genomic reporter replicon assay, subtype 2A
Type: cell-based
Details: Hepatitis C virus; Huh-7 cells, HCV subtype 2A replicon; read-out: Replicon 2A EC50
pEC50: −log10 of the molar value.
Each entry below carries its recorded pEC50.

CN(C)c1ncnc2c1ccn2[C@@H]1O[C@H](CO)[C@@H](O)[C@H]1O [RC4, reference compound]: 6.01
CSc1ncnc2c1c(-c1ccccc1)cn2[C@@H]1O[C@H](CO)[C@@H](O)[C@H]1O: < 4.36
CNc1ncnc2c1ccn2[C@@H]1O[C@H](CO)[C@@H](O)[C@H]1O [RC3, reference compound]: < 4.36

Looking up `CNc1ncnc2c1c(-c1ccco1)cn2[C@@H]1O[C@H](CO)[C@@H](O)[C@H]1O` , I see its pEC50 listed as 6.85

Looking up COc1ncnc2c1c(I)cn2[C@@H]1O[C@H](CO)[C@@H](O)[C@H]1O [Compound 1h, reference compound] , I see its pEC50 listed as < 4.36

Looking up `Cc1ncnc2c1c(-c1cccs1)cn2[C@@H]1O[C@H](CO)[C@@H](O)[C@H]1O` , I see its pEC50 listed as < 4.36

Looking up `CSc1ncnc2c1c(I)cn2[C@@H]1O[C@H](CO)[C@@H](O)[C@H]1O` , I see its pEC50 listed as < 4.36

Looking up `CSc1ncnc2c1c(-c1ccco1)cn2[C@@H]1O[C@H](CO)[C@@H](O)[C@H]1O` , I see its pEC50 listed as 7.30

Looking up `C#Cc1cn([C@@H]2O[C@H](CO)[C@@H](O)[C@H]2O)c2ncnc(OC)c12` , I see its pEC50 listed as < 4.36

Looking up `C#Cc1cn([C@@H]2O[C@H](CO)[C@@H](O)[C@H]2O)c2ncnc(NC)c12` , I see its pEC50 listed as < 4.36

Looking up `CN(C)c1ncnc2c1c(-c1ccoc1)cn2[C@@H]1O[C@H](CO)[C@@H](O)[C@H]1O` , I see its pEC50 listed as < 4.36

Looking up `Cc1ncnc2c1c(-c1ccccc1)cn2[C@@H]1O[C@H](CO)[C@@H](O)[C@H]1O` , I see its pEC50 listed as < 4.36

Looking up `CN(C)c1ncnc2c1c(-c1ccccc1)cn2[C@@H]1O[C@H](CO)[C@@H](O)[C@H]1O` , I see its pEC50 listed as < 4.36

Looking up `CN(C)c1ncnc2c1c(I)cn2[C@@H]1O[C@H](CO)[C@@H](O)[C@H]1O` , I see its pEC50 listed as < 4.36

Looking up `CN(C)c1ncnc2c1c(-c1ccsc1)cn2[C@@H]1O[C@H](CO)[C@@H](O)[C@H]1O` , I see its pEC50 listed as < 4.36

Looking up `Cc1ncnc2c1c(-c1cc3ccccc3o1)cn2[C@@H]1O[C@H](CO)[C@@H](O)[C@H]1O` , I see its pEC50 listed as 4.40

###

System: BJ
Assay: Cytostatic/cytotoxic MTT assay, BJ fibroblasts
Type: cell-based
Settings: Homo sapiens, non-malignant fibroblasts, 72 h, read-out: MTT, IC50 BJ
Each entry below carries its recorded IC50.
Kindly answer with a numeric value in µM, unit omitted.

Looking up C#Cc1cn([C@@H]2O[C@H](CO)[C@@H](O)[C@H]2O)c2ncnc(SC)c12 [Compound 2g] , I see its IC50 listed as 68.6

###

Tested on: HeLa S3
Test: XTT cytotoxicity assay, HeLa S3
Type: cell-based
Conditions: Homo sapiens, HeLa S3; 72 h incubation; read-out: XTT, IC50 HeLa S3
Each entry below carries its recorded pIC50.
Answer as the number alone; pIC50 is minus log10 of concentration in mol/L.

Looking up `COc1ncnc2c1c(-c1ccoc1)cn2[C@@H]1O[C@H](CO)[C@@H](O)[C@H]1O` , I see its pIC50 listed as 5.75

Looking up CN(C)c1ncnc2c1ccn2[C@@H]1O[C@H](CO)[C@@H](O)[C@H]1O [RC4, reference compound] , I see its pIC50 listed as 4.97

Looking up `C#Cc1cn([C@@H]2O[C@H](CO)[C@@H](O)[C@H]2O)c2ncnc(OC)c12` , I see its pIC50 listed as 5.76

###

Test system: HeLa S3
Experiment: XTT cytotoxicity assay, HeLa S3
Assay type: cell-based
Details: Homo sapiens, HeLa S3; 72 h incubation; read-out: XTT, IC50 HeLa S3
Each entry below carries its recorded IC50.
Kindly answer with a numeric value in µM, unit omitted.

See these solved cases before continuing.
Cc1ncnc2c1c(-c1ccco1)cn2[C@@H]1O[C@H](CO)[C@@H](O)[C@H]1O: 1.33
COc1ncnc2c1c(-c1ccsc1)cn2[C@@H]1O[C@H](CO)[C@@H](O)[C@H]1O: 3.35
CN(C)c1ncnc2c1c(-c1ccco1)cn2[C@@H]1O[C@H](CO)[C@@H](O)[C@H]1O: 1.19
C#Cc1cn([C@@H]2O[C@H](CO)[C@@H](O)[C@H]2O)c2ncnc(SC)c12: 0.11
CNc1ncnc2c1c(-c1ccco1)cn2[C@@H]1O[C@H](CO)[C@@H](O)[C@H]1O: 5

Looking up `CSc1ncnc2c1c(-c1cc3ccccc3o1)cn2[C@@H]1O[C@H](CO)[C@@H](O)[C@H]1O` , I see its IC50 listed as 1.93

Looking up `CN(C)c1ncnc2c1c(I)cn2[C@@H]1O[C@H](CO)[C@@H](O)[C@H]1O` , I see its IC50 listed as 0.19

###

Each entry below carries its recorded melting point.

See these solved cases before continuing.
CN(C)c1ncnc2c1c(I)cn2[C@@H]1O[C@H](CO)[C@@H](O)[C@H]1O: 195 to 197 °C
CN(C)c1ncnc2c1c(-c1ccoc1)cn2[C@@H]1O[C@H](CO)[C@@H](O)[C@H]1O: 94 to 97 °C
CNc1ncnc2c1c(-c1cccs1)cn2[C@@H]1O[C@H](CO)[C@@H](O)[C@H]1O: 183 to 185 °C

Now consider a different compound.
Looking up `CNc1ncnc2c1c(-c1cc3ccccc3o1)cn2[C@@H]1O[C@H](CO)[C@@H](O)[C@H]1O` , I see its melting point listed as 203 to 206 °C

###

Test system: Huh-7 cells harboring replicon 1B
Experiment: Cytotoxicity in replicon 1B cells
Format: cell-based
Settings: HCV subtype 1B replicon
Description: Compounds were also tested in Huh-7 cells harboring sub-genomic reporter replicons derived from HCV subtypes 1B and 2A (ref.: Stuyver, L. J.; Whitaker, T.; McBrayer, T. R.; Hernandez-Santiago, B. I.; Lostia, S.; Tharnish, P. M.; Ramesh, M.; Chu, C. K.; Jordan, R.; Shi, J. X.; Rachakonda, S.; Watanabe, K. A.; Otto, M. J.; Schinazi, R. F. Antimicrob. Agents Chemother. 2003, 47, 244-254).
measuredQuantity: CC50

See these solved cases before continuing.
CN(C)c1ncnc2c1c(-c1ccsc1)cn2[C@@H]1O[C@H](CO)[C@@H](O)[C@H]1O: > 44 µM
C#Cc1cn([C@@H]2O[C@H](CO)[C@@H](O)[C@H]2O)c2ncnc(NC)c12: > 44 µM
Cc1ncnc2c1ccn2[C@@H]1O[C@H](CO)[C@@H](O)[C@H]1O [RC5, reference compound]: 0.23 µM

Now consider a different compound.
Looking up `COc1ncnc2c1c(-c1ccoc1)cn2[C@@H]1O[C@H](CO)[C@@H](O)[C@H]1O` , I see its CC50 listed as > 44 µM
